The values you see were collected from patent US9611277B2.

Biological target: human orexin 2 receptor (Homo sapiens (Human))
Sequence (O43614 whole entry): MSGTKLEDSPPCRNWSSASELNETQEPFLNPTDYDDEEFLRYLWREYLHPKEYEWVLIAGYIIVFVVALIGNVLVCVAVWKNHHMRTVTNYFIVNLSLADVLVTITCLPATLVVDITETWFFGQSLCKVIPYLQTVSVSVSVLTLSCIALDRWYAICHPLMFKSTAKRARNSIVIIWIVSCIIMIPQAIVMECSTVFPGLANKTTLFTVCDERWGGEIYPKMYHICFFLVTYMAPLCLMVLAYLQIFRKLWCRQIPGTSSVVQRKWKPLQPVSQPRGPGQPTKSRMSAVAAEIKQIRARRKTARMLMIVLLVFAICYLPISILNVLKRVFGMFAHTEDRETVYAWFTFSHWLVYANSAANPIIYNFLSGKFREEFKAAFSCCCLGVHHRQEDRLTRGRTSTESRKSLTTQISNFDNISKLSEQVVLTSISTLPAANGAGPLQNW
Assay: Human orexin 2 receptor radioligand binding
Details: human orexin 2 receptor; averages of 2-20 runs; read-out: hOX2 Ki
Endpoint: Ki (nM)

{"columns": ["Structure As Smiles", "Ki / nM"],
 "data": [
  ["O=C(c1cccc(F)c1-c1ncccn1)N1C[C@H]2C[C@@H](Oc3cnc(C(F)(F)F)cn3)[C@@H]1C2", 4200]
]}

a: O=C(c1ccc(F)cc1-n1nccn1)N1C[C@H]2C[C@@H](Oc3ccc(Br)cn3)[C@@H]1C2
b: Cc1ccc(-n2nccn2)c(C(=O)N2C[C@H]3C[C@@H](Oc4ccc5cccnc5n4)[C@@H]2C3)n1
c: O=C(c1c(F)cccc1-c1ncccn1)N1C[C@H]2C[C@@H](Oc3ccc(C(F)(F)F)cn3)[C@@H]1C2
Request: List items by Ki in falling order. Provide the labels, sequenced as the question asks.
Response: b, a, c
(b: 3100 nM, a: 1960 nM, c: 633 nM)
